Target: T1, Human Nectin-4 (human, UniProt Q96NY8 32-349, limits assumed)
T1 construct: Protein immobilised on the SPR chip; also called target protein
T1 sequence: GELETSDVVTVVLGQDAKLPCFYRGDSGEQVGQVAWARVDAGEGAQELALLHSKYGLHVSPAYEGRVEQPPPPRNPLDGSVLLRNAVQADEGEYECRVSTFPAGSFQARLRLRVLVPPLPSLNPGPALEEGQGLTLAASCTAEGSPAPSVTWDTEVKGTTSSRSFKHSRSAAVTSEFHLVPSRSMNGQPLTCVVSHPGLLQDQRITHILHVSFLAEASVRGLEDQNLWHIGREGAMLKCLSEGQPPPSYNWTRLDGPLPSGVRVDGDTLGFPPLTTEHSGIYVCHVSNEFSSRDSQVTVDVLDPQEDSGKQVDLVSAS
Test: Table 2B (DELFIA or SPR)
Bridges are numbered along the chain shown (N, C = ends). Primed or numbered codes have the meaning given here. Where no end group is shown, it is not given here. The star is where a group is joined. Biotin = O=C1N[C@H]2[C@H](CS[C@H]2CCCCC(=O)*)N1; PEG4″ = 4(ethylene glycol); PEG4′ = not defined here
readout: Kd (nM)
# value in nM; strip the unit string

query: Kindly indicate its recorded Kd. Item: {Biotin-PEG4″}-CEYDGEFFTALARLRGGDICQYIQAKFQYLPGLCIEEILDNLGCS-OH (designed binder, disulfide 1-34, 20-44) [C158]
result: 1.1

query: Kindly indicate its recorded Kd. Item: {Biotin-PEG4′}-CDYDEQFFTALKRLRGGDICEYIQASFQYLPGLCIEEILDNLGCS (designed binder, cysteine pairing not given here) [C190]
result: 0.71

query: Kindly indicate its recorded Kd. Item: Ac-CEYDEEFFLGLKRLRGGDICYYIKKKFKKVPDLCIEEILEKLGC-OH (designed binder, disulfide 1-34, 20-44) [C60]
result: 3.17

query: Kindly indicate its recorded Kd. Item: Ac-CEYDEEFFNGLHRLRRGDICYYIKKKFKKVPDLCIEEILDKLGC-OH (designed binder, disulfide 1-34, 20-44) [C18]
result: 38.2

query: Kindly indicate its recorded Kd. Item: Ac-CEYDEEFFTGLKRLRGGDICYYIKKKFKKVPELCIEEILEKLGC-OH (designed binder, disulfide 1-34, 20-44) [C66]
result: 2.63
